protocol_summary: qHTS of pediatric cancer cell lines to identify multiple opportunities for drug repurposing: Confirmatory screen for BT-37 cells (AID 1347117);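 note: viability measured after 48 h of compound exposure; nearly all actives have a fitted effect of over 55% in size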
setup_conditions: BT-37 pediatric cancer cells, viability; series mostly up to 45.9 µM
Procedure: Drug repurposing or repositioning has been offered as a strategy for drug development in oncology programs. […] [1] Shen, M et al. Quantitative high-throughput phenotypic screening of pediatric cancer cell lines identifies multiple opportunities for drug repurposing. […] Cells were assayed in growth media at a density of 500-1,000 cells/well. […] After a 15 min incubation at room temperature, samples were analyzed for luminescence intensity using a ViewLux High-throughput CCD imager equipped with clear filters.
Inconclusive results are not listed. Calls of active or inactive are those of the source. Calls come from the whole dose curve; as a rule, active = well fitted cell-killing curve with a large enough effect; inconclusive = small, poorly fitted or top-dose-only effect; inactive = no such curve, though single readings can be large or run the other way.
Possible outcomes: active, inactive

1) CC(C)CN(C[C@H](O)[C@H](Cc1ccccc1)NC(=O)O[C@H]1CCOC1)S(=O)(=O)c1ccc(N)cc1 : inactive
2) CCC[C@H](N[C@@H](C)C(=O)N1[C@@H]2CCCC[C@H]2C[C@H]1C(=O)O)C(=O)OCC : inactive
3) Nc1ccn([C@@H]2O[C@H](CO)[C@@H](O)[C@H]2O)c(=O)n1 : active
4) CCNC(=O)c1noc(-c2cc(C(C)C)c(O)cc2O)c1-c1ccc(CN2CCOCC2)cc1 : active
5) CC1(C)CC(=O)c2c(C(F)(F)F)nn(-c3ccc(C(N)=O)c(NC4CCC(O)CC4)c3)c2C1 (centres undefined) : active
6) Cc1cccc(-c2[nH]c(C(C)(C)C)nc2-c2ccc3c(c2)OCO3)n1 : active
7) CCC[C@H](Nc1nc(-c2ccc(NC(=O)NCC)c(OC)c2)ncc1C)c1cccnc1 : active
8) CC1(C)OC2CC3C4CC(F)C5=CC(=O)C=CC5(C)C4C(O)CC3(C)[C@]2(C(=O)CO)O1 (some centres undefined) : inactive
9) Cc1ccc2c(c1)C(=O)[C@]1(O)CCN(c3ccccc3)C1=N2 : inactive

###

protocol_summary: qHTS Screen of the MIPE 4.0 Collection Against Ewings Sarcoma (RDES) (AID 1259252); note: nearly all actives have a fitted effect of over 35% in size
setup_conditions: RD-ES Ewing sarcoma viability, CellTiter-Glo, 48 h; series mostly up to 45.8 µM
Records with an inconclusive call do not appear. Calls of active or inactive are those of the source. Calls come from the whole dose curve; as a rule, active = well fitted inhibition curve with a large enough effect; inconclusive = small, poorly fitted or top-dose-only effect; inactive = no such curve, though single readings can be large or run the other way.
Outcome codes: active, inactive

1) C=C[C@@H]1CN2CCC1C[C@@H]2C(O)c1ccnc2ccc(OC)cc12 (stereo not given in full) : active
2) CN[C@H]1[C@@H](O[C@@H]2[C@H](O[C@@H]3[C@@H](O)[C@@H](O)[C@@H](N=C(N)N)[C@@H](O)[C@@H]3N=C(N)N)O[C@H](C)[C@@]2(O)C=O)O[C@@H](CO)[C@@H](O)[C@H]1O : inactive
3) C=CC(=O)Nc1cccc(Sc2nc(Nc3ccc(N4CCN(C)CC4)cc3)ncc2Cl)c1 : active
4) Cc1nc(NC(=O)N2CCC[C@@H]2C(N)=O)sc1-c1csc(C(C)(C)C)n1 : active
5) O=c1[nH]c(=O)n([C@H]2C[C@@H](O)[C@@H](CO)O2)cc1C(F)(F)F : active
6) CC1(COc2ccc3c(c2)ncn3-c2ccc3cccc(N4CCC(N)CC4)c3n2)COC1 : inactive
7) Cc1nc2c([nH]1)CCN(C(=O)c1ccc(NC(=O)c3ccccc3-c3ccccc3)cc1)c1ccccc1-2 : inactive
8) CCC(C)SSc1ncc[nH]1 (stereo not given) : active
9) COc1cc2c(cc1Cc1cccc(Cl)c1F)c(=O)c(C(=O)O)cn2[C@H](CO)C(C)C : active
10) Cc1cn([C@@H]2C[C@@H](O)[C@H](CO)O2)c(=O)[nH]c1=O : inactive
11) COc1cc2ncn(-c3cc(OCc4ccccc4S(C)(=O)=O)c(C#N)s3)c2cc1OC : active
12) CN(C)CCN(Cc1ccc(Cl)cc1)c1ccccn1 : active
13) CNc1nc(-c2ccc3c(N)n[nH]c3c2)cc(N2C[C@@H](C(=O)NC3CCCCC3)CC[C@@H]2C)n1 : active
14) O=[N+]([O-])c1ccc(Nc2ccccc2-c2ccccc2)c2nonc12 : inactive
15) CCCCC[C@H](O)C=C[C@H]1[C@H](O)CC(=O)[C@H]1CCCCCCC(=O)O : inactive
16) C[C@@H](NC(=O)c1ncnc(N)c1Cl)c1ncc(C(=O)Nc2cc(C(F)(F)F)c(Cl)cn2)s1 : active
17) O=c1[nH]c(=O)n([C@H]2C[C@@H](O)[C@@H](CO)O2)cc1I : inactive
18) Nc1ccc(-c2ccc3ncc4ccc(=O)n(-c5cccc(C(F)(F)F)c5)c4c3c2)cn1 : active
19) O=C1C(c2c(O)[nH]c3ccccc23)=Nc2ccccc21 : active
20) COc1ccc2ccc(=O)oc2c1CC=C(C)C : active
